- protocol summary: chemical genetic growth profiling, strain panel (AID 1159580);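 also: tested at 20 µM; growth read once vehicle control cultures reached saturation at 30 °C; 1 = growth at the plate median or of vehicle wells; lower values mean less growth of the strain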
- stated conditions: S. cerevisiae deletion strains, growth OD, locus YKL203C, strain TOR2, active compounds read low
Screen size: about 5,500 compounds; about 2,000 (36%) were called active. Not shown: some 18% with an inconclusive outcome. Some of the results follow.
With a cut-off of 0.9, any normalized growth strictly below it is called Satisfied; any normalized growth meeting it or above is called Not satisfied.

Some entries whose results are on file:
compound string: Cn1c([N+](=O)[O-])cnc1/C=C(\C#N)C(=O)Nc1ccc(F)cc1
cat: Satisfied

compound string: CC1=CC(=O)C(CCOCCC2=CC(=O)C(C)=CC2=O)=CC1=O
cat: Not satisfied

compound string: N#C/C(=C\c1ccccc1Sc1ccc(Cl)cc1)S(=O)(=O)c1ccccn1
cat: Not satisfied

compound string: Cc1c(Cl)cccc1NC(=S)N1CCCN(c2nc3ccc(Cl)cc3s2)CC1
cat: Not satisfied

compound string: O=C(NCc1ccco1)c1ccc(Oc2cc(Cl)cc(Cl)c2)o1
cat: Not satisfied

compound string: NCCCN=c1ccc2c3c1c(O)c1c(O)ccc(=O)c1c3[nH]n2CCNCCO
cat: Not satisfied

compound string: O=C(Nc1cc(Cl)cc(Cl)c1)Nc1cc(-c2ccco2)[nH]n1
cat: Satisfied

compound string: S=C(Nc1cc(-c2cccs2)[nH]n1)Nc1ccccc1Cl
cat: Satisfied

normalized growth under 0.9? Item: `C=CC(=O)N1CCc2cc([N+](=O)[O-])ccc21`
Satisfied

normalized growth under 0.9? Item: `COc1ccc(NC(=O)O/N=C(/N)c2ccc(Oc3c(Cl)cncc3Cl)cc2)cc1`
Satisfied

====

- protocol summary: chemical genetic growth profiling, strain panel (AID 1159580)
- stated conditions: S. cerevisiae deletion strains, growth OD, locus YKR026C, strain gcn3
About 2,000 (36%) of roughly 5,500 compounds were called active. About 18% were inconclusive and are not listed. Cut-off read from the data, not from the text of the source: active = normalized growth mostly below about 0.91 (no sharp cut-off); inconclusive = no clear call, values can overlap the other calls; inactive = mostly above about 0.92. The list shows a part of the results.
Pick one and only one: 1.0 for active, 0.0 for inactive

Just curious, what result did `O=C(/C=C/C=C/c1ccc2c(c1)OCO2)N1CCCCC1` get here?
0.0

Just curious, what result did `NC/C=C/C(=O)O` get here?
0.0

====

- protocol summary: chemical genetic growth profiling, strain panel (AID 1159580)
- stated conditions: S. cerevisiae deletion strains, growth OD, locus YDL185W, strain tfp1, active compounds read low
The campaign covered roughly 5,500 compounds. About 2,000 (36%) were called active. Not shown: some 18% with an inconclusive outcome. Some of the results follow.
reported metric: normalized growth

Observe how each entry below is paired with its result.
molecule: NC(N)=NOCC[C@H](N)C(=O)O
normalized growth: 0.975 (inactive)
//
molecule: CC(C)CC1C(=O)N2CCC[C@H]2C2(O)O[C@](NC(=O)C3C=C4c5cccc6[nH]c(Br)c(c56)C[C@H]4N(C)C3)(C(C)C)C(=O)N12 (some centres undefined)
normalized growth: 0.947 (inactive)
//
molecule: N#Cc1c(Cl)c(Cl)c(Cl)c(C#N)c1Cl
normalized growth: 0.951 (inactive)

Please report the measured normalized growth for C[N+](C)(C)CCOP(=O)([O-])OP(=O)(O)OC[C@H]1OC(n2ccc(N)nc2=O)[C@H](O)[C@@H]1O (some centres undefined)
0.992 (inactive)

====

- protocol summary: chemical genetic growth profiling, strain panel (AID 1159580)
- stated conditions: S. cerevisiae deletion strains, growth OD, locus YJL168C, strain set2, active compounds read low
About 2,000 (36%) of roughly 5,500 compounds were called active. Not shown: some 18% with an inconclusive outcome. The list shows a part of the results.
reported metric: normalized growth

compound: COC(=O)C1[C@H]2C[C@H]3c4[nH]c5ccccc5c4CCN3C[C@@H]2CC[C@@H]1O (some centres undefined)
normalized growth: 1.02 (inactive)

compound: COc1c(CC=C(C)C)c2c(c3oc(=O)c(-c4ccc(OC(C)=O)cc4)c(OC(C)=O)c13)C=CC(C)(C)O2
normalized growth: 0.997 (inactive)

compound: C/C=C(/C(=C/C)c1ccc(O)cc1)c1ccc(O)cc1
normalized growth: 0.979 (inactive)

Please report the measured normalized growth for `Cc1cc(C(C)(C)CC(C)(C)C)ccc1OCCOCC[N+](C)(C)Cc1ccccc1`
0.0557 (active)

====

- protocol summary: chemical genetic growth profiling, strain panel (AID 1159580)
- stated conditions: S. cerevisiae deletion strains, growth OD, locus YPL031C, strain PHO85
Screen size: about 5,500 compounds; about 2,000 (36%) were called active. Inconclusive results (about 18%) are left out. No stated cut-off is given here; in the data, active means normalized growth mostly below about 0.91 (no sharp cut-off); inconclusive means no clear call, values can overlap the other calls; inactive means mostly above about 0.92. The list shows a part of the results.
Pick one and only one: TRUE = active, FALSE = inactive

compound: O=C(Nc1cc(Cl)cc(Cl)c1)Nc1cc(-c2cccs2)[nH]n1
cat: FALSE

compound: Cc1c(C(=O)N2CCCCC2)cc(-c2ccccc2)n1-c1ccccc1
cat: FALSE

compound: O=C(NCc1ccco1)c1ccc(Oc2cc(Cl)cc(Cl)c2)o1
cat: FALSE

Just curious, what result did `O=C(C=C(O)c1ccc(Br)cc1)C(=O)Nc1ccccc1` get here?
TRUE

Just curious, what result did `N#Cc1c(Cl)c(Cl)c(Cl)c(Cl)c1C#N` get here?
TRUE

====

- protocol summary: chemical genetic growth profiling, strain panel (AID 1159580);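 also: tested at 20 µM; growth read once vehicle control cultures reached saturation at 30 °C; 1 = growth at the plate median or of vehicle wells; lower values mean less growth of the strain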
- stated conditions: S. cerevisiae deletion strains, growth OD, locus YMR205C, strain PFK2, active compounds read low
The campaign covered roughly 5,500 compounds. About 2,000 (36%) were called active. Inconclusive results (about 18%) are left out. The list shows a part of the results.
reported metric: normalized growth
Write the value as a bare number.

Observe how each entry below is paired with its result.
compound string: CCN(CC)C(=S)SSC(=S)N(CC)CC
normalized growth: 0.088
//
compound string: NC/C=C/C(=O)O
normalized growth: 1.02
//
compound string: OCc1ccccc1O[C@@H]1O[C@H](CO)[C@@H](O)[C@H](O)[C@H]1O
normalized growth: 1.01
//
compound string: CC(=O)CC(=O)CCC(=O)O
normalized growth: 1.02

Please report the measured normalized growth for `O=C(Cc1ccccc1)NO`
0.992

====

- protocol summary: chemical genetic growth profiling, strain panel (AID 1159580);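 also: tested at 20 µM; growth read once vehicle control cultures reached saturation at 30 °C; 1 = growth at the plate median or of vehicle wells; lower values mean less growth of the strain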
- stated conditions: S. cerevisiae deletion strains, growth OD, locus YDR001C, strain nth1, active compounds read low
Out of some 5,500 compounds screened, about 2,000 (36%) were called active. Inconclusive results (about 18%) are left out. This is one part of the list.
With a cut-off of 1, any normalized growth strictly below it is called label 1; any normalized growth meeting it or above is called label 0.

compound: CC(=O)O[C@]1(C(C)=O)CCC2C3C=C(C)C4=CC(=O)CCC4(C)C3CCC21C (some centres not stated)
cat: label 1
--
compound: CCC1(c2ccc(N)cc2)CCC(=O)NC1=O (configuration not stated)
cat: label 1
--
compound: S=C=NCc1ccccc1
cat: label 1
--
compound: C[CH2][Hg][S]c1ccccc1C(=O)O
cat: label 1

Could you now consider this next compound?
normalized growth under 1? Item: C=C1CC[C@H](O)C/C1=C/C=C1\CCC[C@]2(C)C([C@H](C)/C=C/[C@H](C)C(C)C)CC[C@@H]12 (some centres not stated)
label 0

====

- protocol summary: chemical genetic growth profiling, strain panel (AID 1159580);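 also: tested at 20 µM; growth read once vehicle control cultures reached saturation at 30 °C; 1 = growth at the plate median or of vehicle wells; lower values mean less growth of the strain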
- stated conditions: S. cerevisiae deletion strains, growth OD, locus YDR195W, strain ref2
The campaign covered roughly 5,500 compounds. About 2,000 (36%) were called active. Not shown: some 18% with an inconclusive outcome. No stated cut-off is given here; in the data, active means normalized growth mostly below about 0.91 (no sharp cut-off); inconclusive means no clear call, values can overlap the other calls; inactive means mostly above about 0.92. The list shows a part of the results.
Pick one and only one: active, inactive

Some entries whose results are on file:
molecule: C[C@@H](N)CO
cat: inactive
//
molecule: CCCCOc1ccc(OCCCN2CCOCC2)cc1
cat: active
//
molecule: NCC1CCCCC1CC(=O)O (centres undefined)
cat: inactive
//
molecule: COc1cc(O)c(C(=O)c2ccccc2)cc1O
cat: inactive

Just curious, what result did NC[C@@H]1O[C@H](O[C@@H]2[C@@H](CO)OC(O[C@@H]3[C@@H](O)[C@H](N)C[C@H](N)[C@H]3OC3O[C@H](CN)[C@@H](O)[C@H](O)[C@H]3N)[C@@H]2O)[C@H](N)[C@@H](O)[C@@H]1O (some centres undefined) get here?
inactive

Just curious, what result did `COc1ccc(C(=O)c2ccccc2O)c(O)c1` get here?
active

Just curious, what result did `CC(C)(N=NC(C)(C)C(=N)N)C(=N)N` get here?
inactive

Just curious, what result did `COc1ccc(C(=O)c2ccccc2)c(O)c1` get here?
active

Just curious, what result did CO[C@H]1C[C@H](O[C@H]2[C@H](C)[C@@H](OC3O[C@H](C)C[C@H](N(C)C)[C@H]3O)[C@@H](C)C[C@]3(CO3)C(=O)[C@H](C)[C@@H](O)[C@@H](C)[C@@H](C)OC(=O)[C@@H]2C)O[C@@H](C)[C@@H]1O (some centres undefined) get here?
inactive

Just curious, what result did `O=C(O)COc1cc(Cl)c(Cl)cc1Cl` get here?
inactive

Just curious, what result did `OCc1ccccc1O[C@@H]1O[C@H](CO)[C@@H](O)[C@H](O)[C@H]1O` get here?
inactive

Just curious, what result did `CC[C@@H](CO)NCCN[C@@H](CC)CO` get here?
inactive

Just curious, what result did `O=C(Cc1ccccc1)NO` get here?
inactive

Just curious, what result did `CCc1nc(N)nc(N)c1-c1ccc(Cl)cc1` get here?
inactive
